Give measured Kp for each item. Keep answers brief.
- assay.details: Ratio between level in skeletal muscle to that of the level in plasma
- Type: ADME
Give bare numbers.

CN(CCOc1ccc(CC2SC(=O)NC2=O)cc1)c1ccccn1.O=C(O)/C=C\C(=O)O (configuration not stated) [ROSIGLITAZONE MALEATE]
0.03

Q: # query: Kp of entry O=C1NC(=O)C(Cc2ccc(OCCn3ccc4ccccc43)cc2)S1 (configuration not stated)
A: 0.07

====

- Tested on: Mus musculus
- assay.details: Percent reduction in triglyceride (TG) after 9 days of dosing in db/db is evaluated in mice for euglycemic and hypolipidemic activities at a dose of 200 mg/kg
Give measured Reduction for each item. Keep answers brief.
Numbers only, in %.

Hi team, please reply with Reduction for each item in this list.
1. O=C1NC(=O)/C(=C/c2ccc(OCCn3ccnc3)cc2)S1
2. Cc1c(C)n(CCOc2ccc(/C=C3\SC(=O)NC3=O)cc2)c2ccccc12
3. O=C1NC(=O)/C(=C/c2ccc(OCCn3ccc4cc(Cl)ccc43)cc2)S1
4. O=C1NC(=O)/C(=C/c2ccc(OCCn3cnc4ccccc43)cc2)S1
5. O=C1NC(=O)/C(=C/c2ccc(OCCn3ccc4cccnc43)cc2)S1

A:
72
2
11
76
79

====

- System: Rattus norvegicus
- assay.details: Tissue level at 10 mg/kg/po in wistar rats in blood
- Assay type: ADME, organism-based
- measurement.parameters: in vivo
Give measured Concentration for each item. Keep answers brief.
One number for each entry, in ng/mL.

CN(CCOc1ccc(CC2SC(=O)NC2=O)cc1)c1ccccn1.O=C(O)/C=C\C(=O)O (configuration not stated) [ROSIGLITAZONE MALEATE]
13800

Turning to the following compound.
Q: # query: Concentration of entry O=C1NC(=O)C(Cc2ccc(OCCn3ccc4ccccc43)cc2)S1 (configuration not stated)
A: 7240

====

- assay.details: Pharmacokinetic Parameter [Area under curve (AUC)] was evaluated at 10 mg/kg (p.o.) in Wistar rats
- Assay type: ADME, organism-based
- Design: dose 10 mg/kg, route oral
- measurement.parameters: rat, in vivo, po
metric.name: AUC (ng·h/mL)
One number for each entry, in ng·h/mL.

Q: # query: AUC of entry CN(CCOc1ccc(CC2SC(=O)NC2=O)cc1)c1ccccn1.O=C(O)/C=C\C(=O)O (stereo unspecified) [ROSIGLITAZONE MALEATE]
A: 59200

====

Give measured Kp for each item. Keep answers brief.
- assay.details: Ratio between level in liver to that of the level in plasma
- Format: ADME, tissue-based
Give bare numbers.

CN(CCOc1ccc(CC2SC(=O)NC2=O)cc1)c1ccccn1.O=C(O)/C=C\C(=O)O (configuration not stated) [ROSIGLITAZONE MALEATE]
0.4

Turning to the following compound.
Q: # query: Kp of entry O=C1NC(=O)C(Cc2ccc(OCCn3ccc4ccccc43)cc2)S1 (configuration not stated)
A: 0.85

====

Give measured Concentration for each item. Keep answers brief.
- System: Rattus norvegicus
- assay.details: Tissue level at 10 mg/kg/po in wistar rats in plasma
- Format: ADME, organism-based
- measurement.parameters: in vivo
Answers are plain numbers, in ng/mL.

Hi team, please reply with Concentration for each item in this list.
1. CN(CCOc1ccc(CC2SC(=O)NC2=O)cc1)c1ccccn1.O=C(O)/C=C\C(=O)O (configuration not stated) [ROSIGLITAZONE MALEATE]
2. O=C1NC(=O)C(Cc2ccc(OCCn3ccc4ccccc43)cc2)S1 (configuration not stated)

A:
1: 27200; 2: 11800

====

- assay.details: Pharmacokinetic parameter [area under curve (AUC)] was evaluated at 10 mg/kg (p.o.) in Wistar rats
- Type: ADME, organism-based
- Set-up: dose 10 mg/kg, route oral
- measurement.parameters: rat, in vivo, po
metric.name: AUC

Q: # query: AUC of entry O=C1NC(=O)C(Cc2ccc(OCCn3ccc4ccccc43)cc2)S1 (stereo unspecified)
A: 129 µg·h/mL

====

- assay.details: Pharmacokinetic parameter (Cmax) was evaluated at 10 mg/kg (p.o.) in Wistar rats
- Assay type: ADME, organism-based
- Parameters: dose 10 mg/kg, route oral
- measurement.parameters: rat, in vivo, po
metric.name: Cmax

Q: # query: Cmax of entry O=C1NC(=O)C(Cc2ccc(OCCn3ccc4ccccc43)cc2)S1 (stereo unspecified)
A: 14500 ng/mL

====

- assay.details: Pharmacokinetic parameter (half-life) was evaluated at 10 mg/kg (p.o.) in Wistar rats
- Assay type: ADME, organism-based
- Design: dose 10 mg/kg, route oral
- measurement.parameters: rat, in vivo, po
metric.name: half-life (min)
One number for each entry, in min.

Q: # query: half-life of entry O=C1NC(=O)C(Cc2ccc(OCCn3ccc4ccccc43)cc2)S1 (stereo unspecified)
A: 197

====

- System: Mus musculus
- assay.details: Percent reduction in triglyceride (TG) after 9 days of dosing in db/db is evaluated in mice for euglycemic and hypolipidemic activities at a dose of 200 mg/kg
# cutoff 40% applies to Reduction; >= gives true, < gives false

CCOC(=O)c1cc2ccccc2n1CCOc1ccc(/C=C2\SC(=O)NC2=O)cc1
false
O=C1NC(=O)C(Cc2ccc(OCCN3CCc4ccccc43)cc2)S1 (configuration not stated)
true
O=C1NC(=O)/C(=C/c2ccc(OCCN3CCc4ccccc43)cc2)S1
true
CN(CCOc1ccc(CC2SC(=O)NC2=O)cc1)c1ccccn1 (configuration not stated) [ROSIGLITAZONE]
true
O=C1NC(=O)/C(=C/c2ccc(OCCn3c(C(=O)O)cc4ccccc43)cc2)S1
false

Q: Test whether the compound O=C1NC(=O)C(Cc2ccc(OCCn3ccc4cccnc43)cc2)S1 (configuration not stated) records Reduction of 40% or higher.
A: true

====

- assay.details: Pharmacokinetic parameter (tmax(h)) was evaluated at 10 mg/kg (p.o.) in Wistar rats
- Type: ADME, organism-based
- Design: dose 10 mg/kg, route oral
- measurement.parameters: rat, in vivo, po
metric.name: Tmax (h)
Numbers only, in h.

Q: # query: Tmax of entry O=C1NC(=O)C(Cc2ccc(OCCn3ccc4ccccc43)cc2)S1 (stereo unspecified)
A: 3.67

====

- Test system: Mus musculus
- assay.details: Percent reduction in triglyceride (TG) after 9 days of dosing in db/db is evaluated in mice for euglycemic and hypolipidemic activities at a dose of 100 mg/kg
metric.name: Reduction (%)
One number for each entry, in %.

Use these answered entries as a reference point.
CN(CCOc1ccc(CC2SC(=O)NC2=O)cc1)c1ccccn1 (stereo unspecified)
46
CN(CCOc1ccc(/C=C2\SC(=O)NC2=O)cc1)c1ccccn1
32
O=C1NC(=O)C(Cc2ccc(OCCn3ccc4ccccc43)cc2)S1 (stereo unspecified)
77
O=C1NC(=O)/C(=C\c2ccc(OCCn3c4ccccc4c4ccccc43)cc2)S1
44
COC(=O)C(N)Cc1cn(CCOc2ccc(/C=C3\SC(=O)NC3=O)cc2)c2ccccc12 (stereo unspecified)
64

Q: # query: Reduction of entry O=C1NC(=O)C(Cc2ccc(OCCn3c4ccccc4c4ccccc43)cc2)S1 (stereo unspecified)
A: 21

====

- assay.details: Pharmacokinetic parameter [Kel(1/h)] was evaluated at 10 mg/kg (p.o.) in Wistar rats
- Format: ADME, organism-based
- Design: dose 10 mg/kg, route oral
- measurement.parameters: rat, in vivo, po
metric.name: k el (s⁻¹)
Answers are plain numbers, in s⁻¹.

Q: # query: k el of entry O=C1NC(=O)C(Cc2ccc(OCCn3ccc4ccccc43)cc2)S1 (stereo unspecified)
A: 6.94e-05

====

- assay.details: Ratio between level in brown fat to that of the level in plasma
- Type: ADME
metric.name: Kp
Numbers only.

O=C1NC(=O)C(Cc2ccc(OCCn3ccc4ccccc43)cc2)S1 (configuration not stated)
0.1

Q: # query: Kp of entry CN(CCOc1ccc(CC2SC(=O)NC2=O)cc1)c1ccccn1.O=C(O)/C=C\C(=O)O (configuration not stated) [ROSIGLITAZONE MALEATE]
A: 0.08

Data origin: ChEMBL document CHEMBL1131213
